Each entry below carries its reported Uterine activity.
Species: Rattus norvegicus
Experiment: Uterine activity was meseared in isolated rat uterus in solutions in the absence No Mg2+ 0.5 mM in vitro
Assay type: functional
Give just the numeric value; units/mg need not be written.

Recorded results for 2 compounds are shown here.
N=C(N)NCCC[C@@H](NC(=O)[C@@H]1CCCN1C(=O)[C@@H]1CSSCCC(=O)N[C@@H](Cc2ccc(O)cc2)C(=O)N[C@@H](Cc2ccccc2)C(=O)N[C@@H](CCC(N)=O)C(=O)N[C@@H](CC(N)=O)C(=O)N1)C(=O)NCC(N)=O | 28
NC(=O)CC[C@@H]1NC(=O)[C@H](Cc2ccccc2)NC(=O)[C@H](Cc2ccc(O)cc2)NC(=O)[C@@H](N)CSSC[C@@H](C(=O)N2C[C@H](O)C[C@H]2C(=O)N[C@@H](CCCN=C(N)N)C(=O)NCC(N)=O)NC(=O)[C@H](CC(N)=O)NC1=O (stereo in doubt; form 3) | 63

Request: State its Uterine activity for this compound: `NC(=O)CC[C@@H]1NC(=O)[C@H](Cc2ccccc2)NC(=O)[C@H](Cc2ccc(O)cc2)NC(=O)CCSSC[C@@H](C(=O)N2CC=C[C@H]2C(=O)N[C@@H](CCCN=C(N)N)C(=O)NCC(N)=O)NC(=O)[C@H](CC(N)=O)NC1=O`
Result: 69

Hello, the source for this data is ChEMBL document CHEMBL1123856, in case you need it.
